Organism: Rattus norvegicus
test-details: Open TG-GATES - Regimen: Daily Repeat
Type: toxicity, organism-based, Sprague-Dawley
Set-up: regimen Daily Repeat, gender Male, age 6 weeks
setup-conditions: in vivo, po, 0 mg/kg, […], tissue Kidney, route gavage, dose level Control, time 14 day
Recorded KIDNEY_TOTAL, one value per entry.
Numeric answer only, unit g assumed.

The examples below pair each entry with its known result.
# compound, KIDNEY_TOTAL / g
data = [
    ("O=C1CN(/N=C/c2ccc(-c3ccc([N+](=O)[O-])cc3)o2)C(O)=N1", 2.5),
    ("O=C1NC(=O)C(c2ccccc2)(c2ccccc2)N1", 2.4),
    ("COc1ccc(Cl)cc1C(=O)NCCc1ccc(S(=O)(=O)NC(=O)NC2CCCCC2)cc1 [GLYBURIDE]", 2.5),
    ("C=CCO", 2.4),
    ("Cc1cnc(NC(=O)C2=C(O)c3ccccc3S(=O)(=O)N2C)s1", 2.4),
    ("Cn1cnc([N+](=O)[O-])c1Sc1ncnc2nc[nH]c12", 2.2),
    ("Cn1c(=O)c2c(ncn2C)n(C)c1=O", 2.4),
    ("Cc1cccc(Nc2cc(Cl)nc(SCC(=O)O)n2)c1C", 2.5),
]

Qu. KIDNEY_TOTAL for COc1ccc(O)c(C(C)(C)C)c1.COc1ccc(O)cc1C(C)(C)C [BUTYLATED HYDROXYANISOLE] ?
Ans. 2.3

Qu. # KIDNEY_TOTAL lookup, item CS(=O)(=O)Nc1ccc([N+](=O)[O-])cc1Oc1ccccc1 [NIMESULIDE]
Ans. 2.7

Qu. Which measured KIDNEY_TOTAL value corresponds to O=P1(N(CCCl)CCCl)NCCCO1 (stereo unspecified) [CYCLOPHOSPHAMIDE ANHYDROUS] ?
Ans. 2.4

---

Property: Hb; scope: individual compounds
Species on record: Rattus norvegicus
test-details: Open TG-GATES - Regimen: Single
Assay type: toxicity, organism-based, Sprague-Dawley
Parameters: regimen Single, gender Male, age 6 weeks
setup-conditions: in vivo, po, 0 mg/kg, 3 h, tissue Blood, route gavage, dose level Control

# compound, Hb
measured = [
    ("C=CCO", "13.4 g/dL"),
    ("Cc1cnc(NC(=O)C2=C(O)c3ccccc3S(=O)(=O)N2C)s1", "13.4 g/dL"),
]

Qu. For COc1ccc(O)c(C(C)(C)C)c1.COc1ccc(O)cc1C(C)(C)C [BUTYLATED HYDROXYANISOLE] , what is its reported Hb?
Ans. 13.1 g/dL

---

Species on record: Rattus norvegicus
test-details: Open TG-GATES - Regimen: Single
Assay type: toxicity, organism-based, Sprague-Dawley
Parameters: regimen Single, gender Male, age 6 weeks
setup-conditions: in vivo, po, 0 mg/kg, 3 h, tissue Kidney, route gavage, dose level Control
We begin with a simple list: items and their reported KIDNEY_L.
API: value field is a number in g; no unit string.

# compound, endpoint, value-unit, result-value
records = [
    ("CNCCC(Oc1ccc(C(F)(F)F)cc1)c1ccccc1.Cl (stereo not drawn) [FLUOXETINE HYDROCHLORIDE]", "KIDNEY_L", "g", 0.9),
    ("O=C1NC(=O)C(c2ccccc2)(c2ccccc2)N1 [PHENYTOIN]", "KIDNEY_L", "g", 0.9),
]

Now turn to the next compound.
Qu. State the recorded KIDNEY_L for this entry: Cc1cccc(Nc2cc(Cl)nc(SCC(=O)O)n2)c1C [PIRINIXIC ACID]
Ans. 0.9

---

# MCH per record follows
Species on record: Rattus norvegicus
test-details: Open TG-GATES - Regimen: Daily Repeat
Assay type: toxicity, organism-based, Sprague-Dawley
Parameters: regimen Daily Repeat, gender Male, age 6 weeks
setup-conditions: in vivo, po, 0 mg/kg, […], tissue Blood, route gavage, dose level Control, time 28 day
Give the quantity in pg, number only.

Check out these entries, answers already filled in.
# molecule, MCH, pg
records = [
    ("COc1ccc(O)c(C(C)(C)C)c1.COc1ccc(O)cc1C(C)(C)C [BUTYLATED HYDROXYANISOLE]", 19.5),
    ("Cc1cnc(NC(=O)C2=C(O)c3ccccc3S(=O)(=O)N2C)s1", 19.3),
    ("O=C1CN(/N=C/c2ccc(-c3ccc([N+](=O)[O-])cc3)o2)C(O)=N1", 19.5),
]

Qu. Could you share which MCH value was measured for Cn1cnc([N+](=O)[O-])c1Sc1ncnc2nc[nH]c12 ?
Ans. 19.6

---

Species on record: Rattus norvegicus
test-details: Open TG-GATES - Regimen: Daily Repeat
Format: toxicity, organism-based, Sprague-Dawley
Design: regimen Daily Repeat, gender Male, age 6 weeks
setup-conditions: in vivo, po, 0 mg/kg, […], tissue Plasma, route gavage, dose level Control, time 28 day
Label rule, in plain words: DBIL of 0.02 mg/dL and up is fulfilled, under 0.02 mg/dL is not fulfilled.

Solved cases (5 shown):
# compound, group-label
data = [
    ("O=P1(N(CCCl)CCCl)NCCCO1 (stereo unspecified) [CYCLOPHOSPHAMIDE ANHYDROUS]", "not fulfilled"),
    ("COc1ccc(Cl)cc1C(=O)NCCc1ccc(S(=O)(=O)NC(=O)NC2CCCCC2)cc1 [GLYBURIDE]", "fulfilled"),
    ("C=CCO [ALLYL ALCOHOL]", "fulfilled"),
    ("O=C1NC(=O)C(c2ccccc2)(c2ccccc2)N1 [PHENYTOIN]", "not fulfilled"),
    ("CS(=O)(=O)Nc1ccc([N+](=O)[O-])cc1Oc1ccccc1 [NIMESULIDE]", "not fulfilled"),
]

Qu. In plain terms: is recorded DBIL at least 0.02 mg/dL for Cc1cccc(Nc2cc(Cl)nc(SCC(=O)O)n2)c1C [PIRINIXIC ACID] ?
Ans. not fulfilled

Qu. Please tell me: is the compound O=C1CN(/N=C/c2ccc(-c3ccc([N+](=O)[O-])cc3)o2)C(O)=N1 [DANTROLENE] at or over 0.02 mg/dL in terms of DBIL?
Ans. not fulfilled

Qu. Hello, I need to know if Cn1cnc([N+](=O)[O-])c1Sc1ncnc2nc[nH]c12 [AZATHIOPRINE] has measured DBIL not below 0.02 mg/dL. Thanks!
Ans. not fulfilled

Qu. Decide: is the reported value of DBIL for Cc1cnc(NC(=O)C2=C(O)c3ccccc3S(=O)(=O)N2C)s1 [MELOXICAM] equal to or greater than 0.02 mg/dL?
Ans. fulfilled

Qu. Check the entry Cn1c(=O)c2c(ncn2C)n(C)c1=O [CAFFEINE] : does DBIL equal or exceed 0.02 mg/dL?
Ans. not fulfilled

---

Organism: Rattus norvegicus
test-details: Open TG-GATES - Regimen: Daily Repeat
Type: toxicity, organism-based, Sprague-Dawley
Parameters: regimen Daily Repeat, gender Male, age 6 weeks
setup-conditions: in vivo, po, 0 mg/kg, 72 h, tissue Plasma, route gavage, dose level Control, time 3 day
endpoint: Na (meq/L)
The reply should contain only the number, in meq/L.

# compound, value-unit, Na
measured = [
    ("COc1ccc(Cl)cc1C(=O)NCCc1ccc(S(=O)(=O)NC(=O)NC2CCCCC2)cc1 [GLYBURIDE]", "meq/L", 141),
]

Qu. Which Na reading was recorded for the compound COc1ccc(O)c(C(C)(C)C)c1.COc1ccc(O)cc1C(C)(C)C [BUTYLATED HYDROXYANISOLE] ?
Ans. 143

Qu. # input compound: Cn1cnc([N+](=O)[O-])c1Sc1ncnc2nc[nH]c12 [AZATHIOPRINE] ; wanted: its Na
Ans. 144

Qu. Reported Na, compound O=C1NC(=O)C(c2ccccc2)(c2ccccc2)N1 [PHENYTOIN] : ____
Ans. 143

Qu. GET /values?readout=Na&item= C=CCO [ALLYL ALCOHOL]
Ans. 140.8

Qu. Entry under review: O=P1(N(CCCl)CCCl)NCCCO1 (stereo not given) [CYCLOPHOSPHAMIDE ANHYDROUS] . Reported Na?
Ans. 142.6

Qu. Name the reported Na value associated with the compound Cc1cnc(NC(=O)C2=C(O)c3ccccc3S(=O)(=O)N2C)s1 [MELOXICAM]
Ans. 141

Qu. Could you tell me which Na is on file for CS(=O)(=O)Nc1ccc([N+](=O)[O-])cc1Oc1ccccc1 [NIMESULIDE] ?
Ans. 139.4

Qu. Need Na, item Cc1cccc(Nc2cc(Cl)nc(SCC(=O)O)n2)c1C [PIRINIXIC ACID]
Ans. 143

Qu. Query (compound): O=C1CN(/N=C/c2ccc(-c3ccc([N+](=O)[O-])cc3)o2)C(O)=N1 [DANTROLENE] ; field requested: Na
Ans. 140.2

---

Species on record: Rattus norvegicus
test-details: Open TG-GATES - Regimen: Daily Repeat
Assay type: toxicity, organism-based, Sprague-Dawley
Set-up: regimen Daily Repeat, gender Male, age 6 weeks
setup-conditions: in vivo, po, 0 mg/kg, […], route gavage, dose level Control, time 14 day
endpoint: TERMINAL_BW
Please state the value followed by its unit.

# compound, TERMINAL_BW
rows = [
    ("CS(=O)(=O)Nc1ccc([N+](=O)[O-])cc1Oc1ccccc1 [NIMESULIDE]", "309.7 g"),
    ("COc1ccc(O)c(C(C)(C)C)c1.COc1ccc(O)cc1C(C)(C)C [BUTYLATED HYDROXYANISOLE]", "320.1 g"),
    ("O=C1NC(=O)C(c2ccccc2)(c2ccccc2)N1", "296.2 g"),
    ("O=P1(N(CCCl)CCCl)NCCCO1 (stereo unspecified) [CYCLOPHOSPHAMIDE ANHYDROUS]", "304.2 g"),
]

Qu. // query TERMINAL_BW value for entry Cc1cccc(Nc2cc(Cl)nc(SCC(=O)O)n2)c1C
Ans. 320.3 g

Qu. I'd like to know its TERMINAL_BW. The compound in question is O=C1CN(/N=C/c2ccc(-c3ccc([N+](=O)[O-])cc3)o2)C(O)=N1
Ans. 300.9 g

Qu. Form field: reported TERMINAL_BW of Cc1cnc(NC(=O)C2=C(O)c3ccccc3S(=O)(=O)N2C)s1
Ans. 300.3 g

Qu. Given the entry Cn1cnc([N+](=O)[O-])c1Sc1ncnc2nc[nH]c12 , report its measured TERMINAL_BW.
Ans. 269.5 g

Qu. // returns reported TERMINAL_BW for input COc1ccc(Cl)cc1C(=O)NCCc1ccc(S(=O)(=O)NC(=O)NC2CCCCC2)cc1 [GLYBURIDE]
Ans. 320.1 g

Qu. // TERMINAL_BW lookup, key: Cn1c(=O)c2c(ncn2C)n(C)c1=O
Ans. 312 g

Qu. Consider the compound shown here: C=CCO What is its recorded TERMINAL_BW?
Ans. 319.8 g
